Taken from PubChem BioAssay (NCI).

- Test system: OVCAR-5 ovarian
- procedure.summary: NCI tumour cell line growth inhibition, 48 h
Each record here notes measured TGI.

{"compound": "NCCCCC(N)C(=O)N1CCN(c2nc(N3CCCC3)c3nc(Cl)c(NCc4ccccc4)nc3n2)CC1 (stereo not drawn)", "TGI": "33.9 µM"}
{"compound": "COC(=O)CSc1ccccc1", "TGI": "> 100 µM"}
{"compound": "CCOC(=O)C1(Cc2ccccc2)Cc2cc3c(cc2C1=O)CCC3 (stereo not drawn)", "TGI": "> 100 µM"}

====

- System: HL-60(TB) leukemia
- procedure.summary: NCI tumour cell line growth inhibition, 48 h

{"compound": "Cn1cc(C2=C(c3c4n(c5ccccc35)CC(CN)C4)C(=O)NC2=O)c2ccccc21 (configuration not stated)", "sign.qualifier": "=", "TGI, µM": 9.91}
{"compound": "CCN(CC)CCCC(C)NC(=O)c1cc(-c2nccn2C)nc2ccc(C)cc12 (configuration not stated)", "sign.qualifier": ">", "TGI, µM": 100}
{"compound": "CC(=O)O[C@H]1C(=O)[C@@]2(C)[C@H]([C@H](OC(=O)c3ccccc3)[C@]3(O)C[C@H](OC(=O)[C@H](O)[C@@H](NC(=O)c4ccccc4)C4CCCCC4)C(C)=C1C3(C)C)[C@]1(OC(C)=O)CO[C@@H]1C[C@@H]2O", "sign.qualifier": "<", "TGI, µM": 0.01}
{"compound": "C/C(=N\\Nc1ccc2ccccc2n1)c1ccccc1O", "sign.qualifier": ">", "TGI, µM": 100}
{"compound": "O=C1Nc2ccccc2C1(c1ccc(O)c(F)c1)c1ccc(O)c(F)c1", "sign.qualifier": "=", "TGI, µM": 42.6}
{"compound": "Cc1c2ccccc2c(CO)c2cc(F)c3ccccc3c12", "sign.qualifier": "=", "TGI, µM": 61}
{"compound": "O=C(O)Cn1nnc2c(=O)[nH][nH]c(=O)c21", "sign.qualifier": ">", "TGI, µM": 100}
